Items are presented alongside their recorded pIC50.
test system: L. infantum amastigotes; assay: L. infantum amastigotes assay (Giemsa, infection index); assay type: cell-based, Leishmania infantum; settings: Leishmania infantum; intracellular, 72 h
pIC50 here is simply -log10 of the concentration when that concentration is written in mol/L.

[
  {
    "compound": "CCCCCCCCCCCCCCCCOP(=O)([O-])OCC[N+](C)(C)C [Miltefosine, reference compound]",
    "pIC50": 5.43
  }
]

Consider the record given below.
Bench note: what pIC50 did C=C[C@@H](c1cc(CC=C(C)C)ccc1O)c1cc(CC=C(C)C)c(OC)cc1O [Compound 3, connarin] show?
5.11

====

test system: L. amazonensis promastigotes; assay: Antiproliferation assay: L. amazonensis promastigotes (24 h), resazurin; assay type: cell-based, Leishmania amazonensis (IFLA/BR/1967/PH8); conditions: Leishmania amazonensis, 24 h of exposure, read-out: IC50
valueKind: IC50 (µM)
State the answer as a number, implicitly in µM.

Any idea what IC50 came out for C=C[C@@H](c1cc(CC=C(C)C)ccc1O)c1cc(CC=C(C)C)c(OC)cc1O on L. amazonensis promastigotes?
20.5

Value source: paper PMC7647111
